target: MRG15 MRG M228A (human) (UniProt Q9UBU8); experiment: ITC
reported.metric: Kd (nM)
Give bare numbers, in nM.

Task: Provide one value: measured Kd of DYVQPQLRRPFELLIAAAMERNPTQFQLPNELTCTTALPGSS (domain or fragment) [Pf1 MBD (MRG-binding domain, residues 200–241)]
Result: 75
